Biological target: T1, alpha1A-adrenoceptor (Homo sapiens, UniProt P35348)
T1 chain: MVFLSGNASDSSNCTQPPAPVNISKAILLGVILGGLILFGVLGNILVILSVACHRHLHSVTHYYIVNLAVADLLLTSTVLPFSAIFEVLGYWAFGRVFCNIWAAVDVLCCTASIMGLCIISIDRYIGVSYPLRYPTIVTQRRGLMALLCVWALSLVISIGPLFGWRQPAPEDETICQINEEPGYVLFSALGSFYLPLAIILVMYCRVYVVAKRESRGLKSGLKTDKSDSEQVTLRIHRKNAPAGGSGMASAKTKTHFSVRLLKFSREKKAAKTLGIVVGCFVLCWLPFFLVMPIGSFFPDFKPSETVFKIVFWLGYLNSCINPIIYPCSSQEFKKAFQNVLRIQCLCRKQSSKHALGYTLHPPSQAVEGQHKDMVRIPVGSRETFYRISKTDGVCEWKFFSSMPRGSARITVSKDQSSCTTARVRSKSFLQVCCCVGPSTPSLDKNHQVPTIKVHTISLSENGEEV
Assay: [3H]-Prazosin equilibrium inhibition binding
pKi: −log10 of the molar value.
// reported pKi per item
experimental_readout: pKi

[
  {
    "binder": "Muscarinic toxin 7 (MT7) (protein) LTCVKSNSIWFPTSEDCPDGQNLCFKRWQYISPRMYDFTRGCAATCPKAEYRDVINCCGTDKCNK",
    "experimental_readout": "pKi",
    "value_comparator": "<",
    "experimental_result": 4.70
  },
  {
    "binder": "Muscarinic toxin 1 (MT1) (protein) LTCVTSKSIFGITTENCPDGQNLCFKKWYYIVPRYSDITWGCAATCPKPTNVRETIRCCETDKCNE",
    "experimental_readout": "pKi",
    "value_comparator": "=",
    "experimental_result": 7.21
  }
]
